# assayed target: human DGKα (Homo sapiens)
# Construct: TVMV protease cleavage site (C); Hexa-His (C); made in house; host or cells: Sf9 insect cells (baculovirus, Bac-to-Bac)
# Sequence (P23743 with tags, fused parts or gaps): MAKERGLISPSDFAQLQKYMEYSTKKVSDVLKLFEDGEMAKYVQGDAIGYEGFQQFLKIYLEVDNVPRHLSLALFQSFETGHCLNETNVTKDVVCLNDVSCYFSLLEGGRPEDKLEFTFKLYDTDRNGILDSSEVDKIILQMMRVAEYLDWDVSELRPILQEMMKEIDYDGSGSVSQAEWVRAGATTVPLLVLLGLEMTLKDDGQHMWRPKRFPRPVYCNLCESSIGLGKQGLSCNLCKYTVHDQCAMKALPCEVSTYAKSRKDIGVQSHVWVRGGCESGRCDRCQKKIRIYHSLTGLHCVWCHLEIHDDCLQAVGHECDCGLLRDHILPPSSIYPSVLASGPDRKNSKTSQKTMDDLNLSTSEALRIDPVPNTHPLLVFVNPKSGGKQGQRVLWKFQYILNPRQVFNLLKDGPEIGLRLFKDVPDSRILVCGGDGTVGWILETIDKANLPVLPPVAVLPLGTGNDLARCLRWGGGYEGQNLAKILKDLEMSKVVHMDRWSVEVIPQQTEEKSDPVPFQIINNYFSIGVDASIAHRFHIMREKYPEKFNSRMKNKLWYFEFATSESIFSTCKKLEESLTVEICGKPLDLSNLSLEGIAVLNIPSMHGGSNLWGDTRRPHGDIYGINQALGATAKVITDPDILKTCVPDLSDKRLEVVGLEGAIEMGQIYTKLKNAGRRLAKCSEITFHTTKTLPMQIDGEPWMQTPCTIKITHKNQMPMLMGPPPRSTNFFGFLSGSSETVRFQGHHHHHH
# assay overview: DGKα LIPGLO assay (extruded liposome substrate), in vitro DGK inhibition
# Type: biochemical
# setup conditions: liposome (LIPGLO) assay; read-out: DGKa LIPGLO IC50
Criterion: IC50 strictly less than 2000 nM. Met: Satisfied. Not met: Not satisfied.

# compound, class name
records = [
    ("CC[C@@H]1CN(c2cc(=O)n(C)c3ccc(C#N)nc23)[C@@H](C)CN1C(C)c1ccc(Cl)cc1F (single isomer, unassigned) [Example 1353]", "Satisfied"),
    ("COCC(c1ccc(F)cc1)N1C[C@H](C)N(c2cc(=O)n(C)c3ccc(C#N)nc23)C[C@H]1C (single isomer, unassigned) [Example 559]", "Satisfied"),
    ("CC[C@H]1CN(C(c2ccc(Cl)cc2)c2ccc(Cl)cc2)[C@H](CC)CN1c1cc(=O)n(C)c2ccc(C#N)nc12", "Satisfied"),
    ("C[C@@H]1CN(c2cc(=O)n(C)c3ccc(C#N)nc23)[C@@H](C)CN1C(c1ccc(F)cc1)c1ccnc(C(C)(C)C)n1 (single isomer, unassigned) [Example 409]", "Not satisfied"),
    ("CC(c1cccc(OC(F)(F)F)c1)N1C[C@H](C)N(c2cc(=O)n(C)c3ccc(C#N)nc23)C[C@H]1C (single isomer, unassigned) [Example 1268]", "Not satisfied"),
    ("Cc1ccc(C(c2cc(C)ccn2)N2C[C@H](C)N(c3cc(=O)n(C)c4ccc(C#N)nc34)C[C@H]2C)cc1 (single isomer, unassigned) [Example 460]", "Satisfied"),
    ("CSCC(c1ccc(F)cc1)N1C[C@H](C)N(c2cc(=O)n(C)c3ccc(C#N)nc23)C[C@H]1C (single isomer, unassigned) [Example 1319]", "Satisfied"),
    ("Cc1ncc(C(c2ccc(Cl)cc2)N2C[C@H](C)N(c3cc(=O)n(C)c4ccc(C#N)nc34)C[C@H]2C)cn1 (some centres unmarked)", "Not satisfied"),
    ("C[C@@H]1CN(c2cc(=O)n(C)c3ccc(C#N)nc23)[C@@H](C)CN1C(CO)c1ccc(F)cc1 (single isomer, unassigned) [Example 558]", "Not satisfied"),
    ("C[C@@H]1CN(c2cc(=O)n(C)c3ccc(C#N)nc23)[C@@H](C)CN1C(CO)c1ccc(F)cc1 (single isomer, unassigned) [Example 557]", "Satisfied"),
    ("CC(c1ccc(OC(C)(C)C)cc1)N1C[C@H](C)N(c2cc(=O)n(C)c3ccc(C#N)nc23)C[C@H]1C (single isomer, unassigned) [Example 1441]", "Not satisfied"),
]

---

pIC50 reference
# assayed target: human DGKζ (Homo sapiens)
# Construct: TVMV protease cleavage site (C); Hexa-His (C); made in house; host or cells: Sf9 insect cells (baculovirus, Bac-to-Bac)
# assay overview: DGKζ LIPGLO assay (extruded liposome substrate), in vitro DGK inhibition
# Format: biochemical
# setup conditions: DGKζ liposome (LIPGLO) assay; read-out: DGKz LIPGLO IC50
pIC50: −log10 of the molar value.
value type: pIC50

# compound, assayed target, measurement
records = [
    ("Cc1ccc(C(c2ccc(F)cc2Cl)N2C[C@H](C)N(c3c(C#N)c(=O)n(C)c4ccc(C#N)nc34)C[C@H]2C)nc1 (stereo partly shown) [Example 831]", "human DGKζ (Homo sapiens)", 5.19),
    ("CC(c1ccccn1)N1CCN(c2c(C#N)c(=O)n(C)c3ccc(C#N)nc23)C[C@H]1C (single isomer, unassigned) [Example 965]", "human DGKζ (Homo sapiens)", 4.22),
    ("CC(c1ccccc1F)N1C[C@H](C)N(c2c(C#N)c(=O)n(C)c3ccc(C#N)nc23)C[C@H]1C (single isomer, unassigned) [Example 797]", "human DGKζ (Homo sapiens)", 5.07),
    ("C[C@@H]1CN(c2c(C#N)c(=O)n(C)c3ccc(C#N)nc23)[C@@H](C)CN1C(c1ccc(Cl)cc1)c1ncccc1F (single isomer, unassigned) [Example 822]", "human DGKζ (Homo sapiens)", 4.89),
]

---

# assayed target: human DGKζ (Homo sapiens, UniProt Q13574)
# Construct: TVMV protease cleavage site (C); Hexa-His (C); made in house; host or cells: Sf9 insect cells (baculovirus, Bac-to-Bac)
# Sequence (Q13574 with tags, fused parts or gaps isoform Q13574-4): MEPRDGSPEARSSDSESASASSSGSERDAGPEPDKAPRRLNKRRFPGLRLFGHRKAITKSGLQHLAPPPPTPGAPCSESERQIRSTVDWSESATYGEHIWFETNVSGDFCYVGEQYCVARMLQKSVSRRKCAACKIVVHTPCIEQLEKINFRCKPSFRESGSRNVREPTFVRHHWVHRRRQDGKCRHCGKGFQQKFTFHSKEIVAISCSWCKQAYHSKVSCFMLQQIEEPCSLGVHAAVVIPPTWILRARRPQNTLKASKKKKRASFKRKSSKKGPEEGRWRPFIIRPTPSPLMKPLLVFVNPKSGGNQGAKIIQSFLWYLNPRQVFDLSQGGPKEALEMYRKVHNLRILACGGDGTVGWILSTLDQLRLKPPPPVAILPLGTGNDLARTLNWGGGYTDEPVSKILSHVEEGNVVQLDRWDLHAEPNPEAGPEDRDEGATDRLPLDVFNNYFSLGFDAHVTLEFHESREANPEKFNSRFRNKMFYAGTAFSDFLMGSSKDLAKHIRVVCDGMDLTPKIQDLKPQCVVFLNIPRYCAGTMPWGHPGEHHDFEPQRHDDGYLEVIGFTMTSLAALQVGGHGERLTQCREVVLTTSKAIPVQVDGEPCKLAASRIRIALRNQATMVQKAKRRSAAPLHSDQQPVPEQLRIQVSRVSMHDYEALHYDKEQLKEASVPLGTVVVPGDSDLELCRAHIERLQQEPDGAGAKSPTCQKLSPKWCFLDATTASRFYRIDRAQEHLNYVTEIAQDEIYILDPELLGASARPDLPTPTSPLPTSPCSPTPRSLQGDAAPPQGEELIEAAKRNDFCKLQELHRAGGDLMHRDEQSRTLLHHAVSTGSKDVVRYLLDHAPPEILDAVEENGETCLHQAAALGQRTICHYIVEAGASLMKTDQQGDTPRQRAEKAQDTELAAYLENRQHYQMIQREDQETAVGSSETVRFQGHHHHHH
# assay overview: DGKζ LIPGLO assay (extruded liposome substrate), in vitro DGK inhibition
# Assay type: biochemical
# setup conditions: liposome (LIPGLO) assay; read-out: DGKz LIPGLO IC50
pIC50: −log10 of the molar value.
value type: pIC50

# compound, measurement
rows = [
    ("CC(c1ccc(F)cc1)N1C[C@@H](C)N(c2cc(=O)n(C)c3ccc(C#N)nc23)C[C@@H]1CO (single isomer, unassigned) [Example 1178]", 6.14),
    ("C[C@@H]1CN(c2cc(=O)n(C)c3ccc(C#N)nc23)[C@@H](C)CN1C(c1ccc(F)cc1)c1cncn1C (stereo partly drawn) [Example 704]", 4.34),
    ("CCOC[C@@H]1CN(c2cc(=O)n(C)c3ccc(C#N)nc23)[C@@H](C)CN1C(c1ccc(F)cc1)c1ccc(F)cc1 [Example 1164]", 6.17),
]
